Ref: patent US10752587B2

Kindly state Emax for each of the entries shown.
Molecular target: glutathione-S-transferase (GST) tagged LXRalpha LBD (ligand binding domain) (Homo sapiens)
Construct: purchased Invitrogen pv4655
Sequence (Q13133 209-447 limits assumed): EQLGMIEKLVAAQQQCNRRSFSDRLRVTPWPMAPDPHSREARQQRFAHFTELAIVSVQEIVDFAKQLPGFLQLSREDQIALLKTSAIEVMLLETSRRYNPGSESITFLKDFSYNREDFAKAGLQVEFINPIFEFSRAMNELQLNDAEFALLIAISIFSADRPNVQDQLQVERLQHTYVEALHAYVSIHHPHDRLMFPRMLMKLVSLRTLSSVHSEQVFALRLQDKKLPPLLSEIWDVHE
Experiment: LanthaScreen TR-FRET Liver X Receptor Coactivator Assay, co-activator recruitment to LXRalpha LBD
Assay type: biochemical
Settings: efficacy in relation to reference dual agonist T0901317; read-out: LXR alpha Activity @ max dose
One number for each entry, in %.

COc1cccc(S(=O)(=O)N2CC(CC3CCN(c4ccc(C(=O)N(C)C)c(Cl)n4)CC3)C2)c1 :: 45
CN(C)C(=O)c1ccc(N2CCC(CC3CCN(S(=O)(=O)c4cccc(OC(F)(F)F)c4)CC3)CC2)cc1Cl :: 0
CN(C)C(=O)c1ccc(N2CCC(CC3CCN(S(=O)(=O)c4cccc(OC(F)F)c4)CC3)CC2)cc1Cl :: 5
CN(C)C(=O)c1ccc(N2CCC(CC3CCN(S(=O)(=O)c4cccc(Cl)c4)CC3)CC2)cc1Cl :: 15
CN(C)C(=O)c1ccc(N2CCC(CC3CCN(S(=O)(=O)c4cccc(F)c4)CC3)CC2)cc1Cl :: 25

Count: 2. Required value per item: Emax.
1. CC(C)c1cccc([C@@](O)(C(=O)N2CCC(CC3CCN(c4ccc(C(N)=O)c(Cl)c4)CC3)CC2)C(F)(F)F)c1
2. CN(C)C(=O)c1ccc(N2CCC(CC3CCN(S(=O)(=O)c4ccc(Cl)s4)CC3)CC2)cc1Cl

Outgoing:
[26, 0]

----------
Molecular target: glutathione-S-transferase (GST) tagged LXRalpha LBD (ligand binding domain) (Homo sapiens)
Construct: purchased Invitrogen pv4655
Test: LanthaScreen TR-FRET Liver X Receptor Coactivator Assay, co-activator recruitment to LXRalpha LBD
Assay type: biochemical
Conditions: potency (Inflection Point, IP), co-activator recruitment to LXRalpha LBD, in relation to T0901317; read-out: LXR alpha IP
Source text: […]
One threshold, 60 nM, splits the recorded EC50 values: lower ones are rule met, equal or higher ones are rule not met.

CN(C)C(=O)c1ccc(N2CCC(CC3CCN(C(=O)C(O)(c4cccc(F)c4)C(F)F)CC3)CC2)cc1Cl (stereo not drawn) :: rule not met
CN(C)C(=O)c1ccc(N2CCC(CC3(C)CCN(C(=O)[C@](O)(c4cc(F)cc(Cl)c4)C(F)(F)F)CC3)CC2)nc1Cl :: rule met
Cc1ccccc1C1(C(=O)N2CCC(CC3CCN(c4ccc(C(=O)N(C)C)c(Cl)n4)CC3)CC2)CCC1 :: rule not met
COc1cc(F)cc([C@@](O)(C(=O)N2CCC(CC3CCN(c4ccc(C(=O)N(C)C)c(Cl)n4)CC3)CC2)C(F)(F)F)c1 :: rule met

# ---- query molecule ----
Incoming: # strict comparison: is reported EC50 < 60 nM? input = "CN(C)C(=O)c1ccc(N2CCC(CC3CCN(C(=O)[C@](O)(c4ccccc4)C(F)(F)C(F)(F)F)CC3)CC2)cc1"
Outgoing: rule not met
